experimental-setup: in acetone, 287.95 K
value-type: solubility (mole fraction)

>>> obs_value("COC(=O)c1ccccc1S(N)(=O)=O")
0.0643

###

experimental-setup: in isopropanol, 278.75 K
value-type: solubility (mole fraction)

>>> obs_value("COC(=O)c1ccccc1S(N)(=O)=O")
0.00134

###

experimental-setup: in isobutanol, 298.05 K
value-type: solubility (mole fraction)

>>> obs_value("COC(=O)c1ccccc1S(N)(=O)=O")
0.00291

###

experimental-setup: in n-butanol, 324.15 K
value-type: solubility (mole fraction)

>>> obs_value("COC(=O)c1ccccc1S(N)(=O)=O")
0.0139

###

experimental-setup: in methanol, 288.15 K
value-type: solubility (mole fraction)

>>> obs_value("COC(=O)c1ccccc1S(N)(=O)=O")
0.00788

###

experimental-setup: in cyclopentanone, 318.65 K
value-type: solubility (mole fraction)

>>> obs_value("COC(=O)c1ccccc1S(N)(=O)=O")
0.16

###

experimental-setup: in acetone, 278.15 K
value-type: solubility (mole fraction)

>>> obs_value("COC(=O)c1ccccc1S(N)(=O)=O")
0.0483

###

experimental-setup: in ethyl acetate, 278.15 K
value-type: solubility (mole fraction)

>>> obs_value("COC(=O)c1ccccc1S(N)(=O)=O")
0.0135

###

experimental-setup: in isopropanol, 318.15 K
value-type: solubility (mole fraction)

>>> obs_value("COC(=O)c1ccccc1S(N)(=O)=O")
0.0121

###

experimental-setup: in isobutanol, 293.05 K
value-type: solubility (mole fraction)

>>> obs_value("COC(=O)c1ccccc1S(N)(=O)=O")
0.00224

###

experimental-setup: in ethyl formate, 303.45 K
value-type: solubility (mole fraction)

>>> obs_value("COC(=O)c1ccccc1S(N)(=O)=O")
0.03

###

experimental-setup: in acetone, 298.75 K
value-type: solubility (mole fraction)

>>> obs_value("COC(=O)c1ccccc1S(N)(=O)=O")
0.0863

###

experimental-setup: in isobutanol, 303.15 K
value-type: solubility (mole fraction)

>>> obs_value("COC(=O)c1ccccc1S(N)(=O)=O")
0.00378

###

experimental-setup: in n-butanol, 298.05 K
value-type: solubility (mole fraction)

>>> obs_value("COC(=O)c1ccccc1S(N)(=O)=O")
0.004

###

experimental-setup: in 2-pentanone, 273.15 K
value-type: solubility (mole fraction)

>>> obs_value("COC(=O)c1ccccc1S(N)(=O)=O")
0.0185

###

experimental-setup: in methyl acetate, 313.85 K
value-type: solubility (mole fraction)

>>> obs_value("COC(=O)c1ccccc1S(N)(=O)=O")
0.0637

###

experimental-setup: in n-propanol, 324.15 K
value-type: solubility (mole fraction)

>>> obs_value("COC(=O)c1ccccc1S(N)(=O)=O")
0.0164

###

experimental-setup: in n-butanol, 272.15 K
value-type: solubility (mole fraction)

>>> obs_value("COC(=O)c1ccccc1S(N)(=O)=O")
0.00092

###

experimental-setup: in ethyl acetate, 303.45 K
value-type: solubility (mole fraction)

>>> obs_value("COC(=O)c1ccccc1S(N)(=O)=O")
0.0323

###

experimental-setup: in methanol, 283.15 K
value-type: solubility (mole fraction)

>>> obs_value("COC(=O)c1ccccc1S(N)(=O)=O")
0.00595

###

experimental-setup: in cyclopentanone, 283.15 K
value-type: solubility (mole fraction)

>>> obs_value("COC(=O)c1ccccc1S(N)(=O)=O")
0.0704

###

experimental-setup: in ethanol, 293.05 K
value-type: solubility (mole fraction)

>>> obs_value("COC(=O)c1ccccc1S(N)(=O)=O")
0.0054

###

experimental-setup: in methyl acetate, 308.15 K
value-type: solubility (mole fraction)

>>> obs_value("COC(=O)c1ccccc1S(N)(=O)=O")
0.0537

###

experimental-setup: in acetone, 293.85 K
value-type: solubility (mole fraction)

>>> obs_value("COC(=O)c1ccccc1S(N)(=O)=O")
0.0757

###

experimental-setup: in 2-butanone, 318.65 K
value-type: solubility (mole fraction)

>>> obs_value("COC(=O)c1ccccc1S(N)(=O)=O")
0.102

###

experimental-setup: in acetone, 303.45 K
value-type: solubility (mole fraction)

>>> obs_value("COC(=O)c1ccccc1S(N)(=O)=O")
0.0976

###

experimental-setup: in ethyl acetate, 308.15 K
value-type: solubility (mole fraction)

>>> obs_value("COC(=O)c1ccccc1S(N)(=O)=O")
0.0373

###

experimental-setup: in n-butanol, 318.15 K
value-type: solubility (mole fraction)

>>> obs_value("COC(=O)c1ccccc1S(N)(=O)=O")
0.0106

###

experimental-setup: in 2-pentanone, 324.15 K
value-type: solubility (mole fraction)

>>> obs_value("COC(=O)c1ccccc1S(N)(=O)=O")
0.0797

###

experimental-setup: in methyl acetate, 318.65 K
value-type: solubility (mole fraction)

>>> obs_value("COC(=O)c1ccccc1S(N)(=O)=O")
0.0731

###

experimental-setup: in methanol, 293.05 K
value-type: solubility (mole fraction)

>>> obs_value("COC(=O)c1ccccc1S(N)(=O)=O")
0.0102

###

experimental-setup: in n-propanol, 312.15 K
value-type: solubility (mole fraction)

>>> obs_value("COC(=O)c1ccccc1S(N)(=O)=O")
0.00946

###

experimental-setup: in 2-butanone, 324.15 K
value-type: solubility (mole fraction)

>>> obs_value("COC(=O)c1ccccc1S(N)(=O)=O")
0.117

###

experimental-setup: in isobutanol, 278.75 K
value-type: solubility (mole fraction)

>>> obs_value("COC(=O)c1ccccc1S(N)(=O)=O")
0.001

###

experimental-setup: in isopentanol, 288.15 K
value-type: solubility (mole fraction)

>>> obs_value("COC(=O)c1ccccc1S(N)(=O)=O")
0.00177

###

experimental-setup: in acetonitrile, 278.15 K
value-type: solubility (mole fraction)

>>> obs_value("COC(=O)c1ccccc1S(N)(=O)=O")
0.0231

###

experimental-setup: in ethyl formate, 278.15 K
value-type: solubility (mole fraction)

>>> obs_value("COC(=O)c1ccccc1S(N)(=O)=O")
0.0119

###

experimental-setup: in ethanol, 308.05 K
value-type: solubility (mole fraction)

>>> obs_value("COC(=O)c1ccccc1S(N)(=O)=O")
0.0112

###

experimental-setup: in acetone, 308.15 K
value-type: solubility (mole fraction)

>>> obs_value("COC(=O)c1ccccc1S(N)(=O)=O")
0.11

###

experimental-setup: in isopropanol, 308.05 K
value-type: solubility (mole fraction)

>>> obs_value("COC(=O)c1ccccc1S(N)(=O)=O")
0.00726

###

experimental-setup: in n-pentanol, 278.75 K
value-type: solubility (mole fraction)

>>> obs_value("COC(=O)c1ccccc1S(N)(=O)=O")
0.00118

###

experimental-setup: in ethanol, 324.15 K
value-type: solubility (mole fraction)

>>> obs_value("COC(=O)c1ccccc1S(N)(=O)=O")
0.0226

###

experimental-setup: in 2-pentanone, 283.15 K
value-type: solubility (mole fraction)

>>> obs_value("COC(=O)c1ccccc1S(N)(=O)=O")
0.0256

###

experimental-setup: in n-propanol, 293.05 K
value-type: solubility (mole fraction)

>>> obs_value("COC(=O)c1ccccc1S(N)(=O)=O")
0.00357

###

experimental-setup: in 2-pentanone, 303.45 K
value-type: solubility (mole fraction)

>>> obs_value("COC(=O)c1ccccc1S(N)(=O)=O")
0.0466

###

experimental-setup: in n-butanol, 308.05 K
value-type: solubility (mole fraction)

>>> obs_value("COC(=O)c1ccccc1S(N)(=O)=O")
0.00659

###

experimental-setup: in acetonitrile, 298.75 K
value-type: solubility (mole fraction)

>>> obs_value("COC(=O)c1ccccc1S(N)(=O)=O")
0.0504

###

experimental-setup: in methyl acetate, 287.95 K
value-type: solubility (mole fraction)

>>> obs_value("COC(=O)c1ccccc1S(N)(=O)=O")
0.0279

###

experimental-setup: in isopentanol, 278.75 K
value-type: solubility (mole fraction)

>>> obs_value("COC(=O)c1ccccc1S(N)(=O)=O")
0.00105

###

experimental-setup: in isobutanol, 324.15 K
value-type: solubility (mole fraction)

>>> obs_value("COC(=O)c1ccccc1S(N)(=O)=O")
0.0101

###

experimental-setup: in methyl acetate, 324.15 K
value-type: solubility (mole fraction)

>>> obs_value("COC(=O)c1ccccc1S(N)(=O)=O")
0.0851

###

experimental-setup: in 2-butanone, 293.85 K
value-type: solubility (mole fraction)

>>> obs_value("COC(=O)c1ccccc1S(N)(=O)=O")
0.0529

###

experimental-setup: in methanol, 278.75 K
value-type: solubility (mole fraction)

>>> obs_value("COC(=O)c1ccccc1S(N)(=O)=O")
0.00462

###

experimental-setup: in n-butanol, 293.05 K
value-type: solubility (mole fraction)

>>> obs_value("COC(=O)c1ccccc1S(N)(=O)=O")
0.00307

###

experimental-setup: in 2-butanone, 273.15 K
value-type: solubility (mole fraction)

>>> obs_value("COC(=O)c1ccccc1S(N)(=O)=O")
0.028

Just for reference, BigSolDB 2.1 is where these values come from.
